Target: Tg244440 (Toxoplasma gondii)
Sequence (A0A125YNC9 1-462): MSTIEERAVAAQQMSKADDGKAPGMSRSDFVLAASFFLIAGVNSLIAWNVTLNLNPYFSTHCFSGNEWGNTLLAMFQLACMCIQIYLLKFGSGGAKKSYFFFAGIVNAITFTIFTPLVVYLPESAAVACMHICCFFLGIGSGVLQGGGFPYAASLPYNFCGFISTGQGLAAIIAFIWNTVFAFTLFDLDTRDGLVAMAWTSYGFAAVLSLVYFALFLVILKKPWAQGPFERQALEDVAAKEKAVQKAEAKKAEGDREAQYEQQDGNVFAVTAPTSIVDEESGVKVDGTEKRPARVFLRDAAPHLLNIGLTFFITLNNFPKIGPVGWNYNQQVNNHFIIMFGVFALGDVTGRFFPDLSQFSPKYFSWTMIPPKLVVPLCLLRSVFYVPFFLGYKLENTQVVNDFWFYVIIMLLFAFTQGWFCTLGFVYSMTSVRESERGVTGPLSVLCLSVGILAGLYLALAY
Assay: [3H]-guanine uptake and its inhibition in T. brucei TbNB-KO procyclics expressing Tg244440 (clone F5)
Type: cell-based
Settings: calculated from Km or Ki, ΔG0 = −RTln(Ki)
// values below are reported ΔG^0 (Gibbs free energy of interaction)
// return numeric value only (unit: kcal/mol, not printed)

# smiles.record, readout.unit, ΔG^0 (Gibbs free energy of interaction)
measured = [
    ("CCOc1ncnc2c1c(Cl)cn2[C@@H]1O[C@H](CO)[C@@H](O)[C@H]1O", "kcal/mol", -5.14),
    ("Nc1nc2nc[nH]c2c(=S)[nH]1", "kcal/mol", -7.89),
    ("C[C@H]1O[C@@H](n2cnc3c(O)ncnc32)[C@H](O)[C@@H]1O", "kcal/mol", -6.07),
    ("OC[C@H]1O[C@@H](n2ccc3c(O)ncnc32)C[C@@H]1O", "kcal/mol", -5.83),
]

compound Nc1ncnc2c1ncn2[C@@H]1O[C@H](CO)[C@@H](O)[C@H]1O , ΔG^0 (Gibbs free energy of interaction) observed: -5.69

Form field ΔG^0 (Gibbs free energy of interaction), entry Sc1ncnc2nc[nH]c12 : -7.43

Kindly note the recorded ΔG^0 (Gibbs free energy of interaction) for OC[C@H]1O[C@@H](n2cc(Cl)c3c(O)ncnc32)[C@H](O)[C@@H]1O , which is -6.88

Record Nc1nccc2c1ncn2[C@@H]1O[C@H](CO)[C@@H](O)[C@H]1O , field ΔG^0 (Gibbs free energy of interaction): -3.97

# ΔG^0 (Gibbs free energy of interaction) of Nc1ncnc2c1ccn2[C@@H]1O[C@H](CO)C[C@H]1O = -4.23

###

Molecular target: Tg244440 (Toxoplasma gondii, UniProt A0A125YNC9)
Test: [3H]-guanine uptake and its inhibition in T. brucei TbNB-KO procyclics expressing Tg244440 (clone F5)
Assay type: cell-based
Conditions: competition with 50 nM [3H]-guanine, 30 s; Cheng-Prusoff; read-out: Ki
Please respond with fulfilled when measured Ki is strictly beneath 70 µM, and with not fulfilled in all other cases.

# compound, target.or.system, class.label
rows = [
    ("CCOc1ncnc2c1c(Cl)cn2[C@@H]1O[C@H](CO)[C@@H](O)[C@H]1O", "Tg244440 (Toxoplasma gondii, UniProt A0A125YNC9)", "not fulfilled"),
]

Request: Is 70 µM strictly greater than the compound's reported Ki? compound: Nc1ncnc2n[nH]cc12
Result: not fulfilled

Request: In plain terms, does COc1ncnc2c1c(Cl)cn2[C@@H]1O[C@H](CO)[C@@H](O)[C@H]1O come in under 70 µM for Ki?
Result: fulfilled

Request: Is it true that Ki reported for Cn1cnc2c(=O)cc[nH]c21 is less than 70 µM?
Result: not fulfilled

Request: Given the entry Nc1ncnc2c1ncn2[C@@H]1O[C@H](CO)[C@@H](O)[C@@H]1O [Adenine arabinoside (Ara-A), Adenine arabinoside] , would its reported Ki be below 70 µM?
Result: not fulfilled

Request: Dear reviewer, please state whether O=c1[nH]cnc2[nH]nc(Br)c12 has Ki strictly beneath 70 µM.
Result: fulfilled
